- Measured target: T1, recombinant human G-CSF (Genscript) (human, UniProt P09919-2 31-204, limits assumed)
- T1 construct: also called hG-CSF; granulocyte colony stimulating factor
- T1 sequence (looked up): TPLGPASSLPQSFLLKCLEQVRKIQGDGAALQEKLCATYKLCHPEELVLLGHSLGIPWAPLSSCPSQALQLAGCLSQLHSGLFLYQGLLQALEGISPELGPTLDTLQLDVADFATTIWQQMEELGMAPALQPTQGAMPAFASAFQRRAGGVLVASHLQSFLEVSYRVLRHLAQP
- Assay procedure: SPR (Antigen binding (SPR)); antibody captured on an anti-Fc surface, antigen flowed over; column head Koff (10-4 x s-1)
Observation type: koff (s⁻¹)
Response body: numeric value in s⁻¹, unit text excluded.

For record humanized 1B11 antibody variant 8 (h1L/h2H) (antibody, V domains shown, variable domains only; also called clone 8) VH: QVQLVQSGAEVKKPGASVKVSCKASGYTFPIYTMHWIRQAPGQGLEWIGYINPSIGYANYNQKFRDRATLTADTSTSTAYMELSSLRSEDTAVYYCARGGYGDSLFAYWGQGTLVTVSS VL: DIVMTQSPLSLPVTPGEPASISCRSSKSLLHSNGITYLYWYLQKPGQSPQLLIYQMSNLASGVPDRFSGSGSGTDFTLKISRVEAEDVGVYYCAQNLELPYTFGQGTKLEIK the listed koff is 0.00017

Per the records, this binder ( humanized 1B11 antibody variant 15 (h2L/h4H) (antibody, V domains shown, variable domains only; also called clone 15) VH: QVHLVQSGAEVKKPGASVKVSCKASGYTFPIYTMHWIKQAPGQGLEWIGYINPSIGYANYNQKFRDKATLTADKSTSTAYMELSSLRSEDTAVYYCARGGYGDSLFAYWGQGTLVTVSS VL: DIVMTQSPLSLPVTPGEPASISCRSSKSLLHSNGITYLYWYLQKPGQSPQLLIYQMSNLASGVPDRFSSSGSGTDFTLKISRVEAEDVGVYYCAQNLELPYTFGQGTKLEIK ) has koff equal to 0.0001

Entry 1B11 antibody variant 1 (cL/cH) (antibody, V domains shown, also called clone 1; chimeric 1B11) VH: QVHLQQSGAELARPGASVKMSCKASGYTFPIYTMHWIKQRPGQGLEWIGYINPSIGYANYNQKFRDKATLTADKSSSTAYMQLSSLTSEDSAVYYCARGGYGDSLFAYWGQGTLVTVSA VL: DIVMTQAAFSNPVTLGTSASISCRSSKSLLHSNGITYLYWYLQKPGQSPQLLIYQMSNLASGVPDRFSSSGSGTDFTLRISRVEAEDVGVYYCAQNLELPYTFGGGTKLEIK , koff reported as 0.00012
